// provenance: patent US20170224836A1

Target: T1, human CDH6 on cells (human, UniProt P55285 54-790)
T1 sequence: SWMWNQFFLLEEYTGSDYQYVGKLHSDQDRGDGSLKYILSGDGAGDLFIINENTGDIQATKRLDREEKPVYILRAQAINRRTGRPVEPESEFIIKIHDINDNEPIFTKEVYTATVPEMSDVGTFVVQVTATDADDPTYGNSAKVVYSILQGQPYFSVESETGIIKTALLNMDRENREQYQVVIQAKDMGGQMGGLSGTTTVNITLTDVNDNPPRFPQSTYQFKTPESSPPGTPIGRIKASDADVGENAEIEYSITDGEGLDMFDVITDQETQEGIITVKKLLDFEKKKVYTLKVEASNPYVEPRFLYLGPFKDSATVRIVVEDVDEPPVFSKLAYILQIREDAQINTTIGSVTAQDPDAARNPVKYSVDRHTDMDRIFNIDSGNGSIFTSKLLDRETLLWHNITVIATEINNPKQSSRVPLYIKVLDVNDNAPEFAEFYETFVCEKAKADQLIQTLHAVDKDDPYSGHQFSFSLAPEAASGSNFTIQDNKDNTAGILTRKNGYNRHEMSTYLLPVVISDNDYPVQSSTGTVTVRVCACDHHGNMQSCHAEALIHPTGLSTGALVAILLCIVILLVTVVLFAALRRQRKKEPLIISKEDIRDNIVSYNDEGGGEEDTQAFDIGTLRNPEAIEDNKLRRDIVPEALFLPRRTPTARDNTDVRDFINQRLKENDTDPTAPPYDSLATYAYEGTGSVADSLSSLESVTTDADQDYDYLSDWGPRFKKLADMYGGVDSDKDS
Experiment: cell-based or functional assay
reported_property: percent inhibition at 1.22 nM ADC, OVCAR3 cells
Your reply should be a number followed by the unit it is expressed in.

NOV0689-SMCC-DM1 (antibody, human IgG1, lambda, V domains shown, SMCC-DM1 on primary amines, sites not stated) VH: QVQLLESGGGLVQPGGSLRLSCAASGFTFSSFAMNWVRQAPGKGLEWVSVISSSGSNTNYADSVKGRFTISRDNSKNTLYLQMNSLRAEDTAVYYCARPSYFQAMDYWGQGTLVTVSS VL: DIVLTQPPSVSGAPGQRVTISCSGSSSNIGSNFVSWYQQLPGTAPKLLIYDNSNRPSGVPDRFSGSKSGTSASLAITGLQAEDEADYYCSSYDSFDHSWVFGGGTKLTVLG = 7.21%
NOV0690-SMCC-DM1 (antibody, human IgG1, lambda, V domains shown, SMCC-DM1 on primary amines, sites not stated) VH: QVQLLESGGGLVQPGGSLRLSCAASGFTFSDHAIDWVRQAPGKGLEWVSVIAGDGSITYYADSVKGRFTISRDNSKNTLYLQMNSLRAEDTAVYYCARDTGVYREYMDVWGQGTLVTVSS VL: DIELTQPPSVSVSPGQTASITCSGDAIGTKFAHWYQQKPGQAPVLVIYYDHERPSGIPERFSGSNSGNTATLTISGTQAEDEADYYCYSRASSNLVFGGGTKLTVLG = 84.8%

Now, please, on to the next binder.
Asked: Give the measured percent inhibition at 1.22 nM ADC, OVCAR3 cells of NOV0705-SMCC-DM1 (antibody, human IgG1, lambda, V domains shown, SMCC-DM1 on primary amines, sites not stated) VH: QVQLVQSGAEVKKPGESLKISCKGSGYSFTNYWIGWVRQMPGKGLEWMGFIDPGVSYTRYSPSFQGQVTISADKSISTAYLQWSSLKASDTAMYYCARVLAHSTEYNWPAFWGQGTLVTVSS VL: DIVLTQPPSVSGAPGQRVTISCSGSSSNIGLDYVNWYQQLPGTAPKLLIYRNKQRPSGVPDRFSGSKSGTSASLAITGLQAEDEADYYCQAWAGRTNYVVFGGGTKLTVLG .
Given back: 68.6%
